- Assay Info: HUVEC growth inhibition – cell-based, human, primary screen (AID 575);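 further: 100% = median of untreated cell wells with 0.1% DMSO on each plate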
- Details: HUVEC proliferation, CellTiter-Glo luminescence, 72 h; at 10 µM; stronger effect = lower value
Quantity Measured: viability (%)
Numeric only. Scale: %

Q) Query: viability; subject: COC(=O)NCC(c1cccnc1)N1CCOCC1 (stereo not drawn)
A) 103

* * *

Below, each entry is listed with its recorded viability increase.
- Assay Info: doxorubicin toxicity protection in MRP-1 cells – H69AR cells, CellTiter-Glo, duplicate, MRP-1 activator project, pilot screen (AID 807);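 further: compound pretreatment 18-22 h then 72 h combined with doxorubicin; 0% = doxorubicin alone and 100% = vehicle without doxorubicin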
- Details: H69AR viability with doxorubicin, CellTiter-Glo luminescence; at 10 µM; stronger effect = higher value
Number only, in %; omit the unit.

Below, each entry is followed by its recorded viability increase result.
* CCOC(=O)N1CCC(N2CC34C=CC(O3)C(C(=O)Nc3ccc(C)cc3)C4C2=O)CC1 (stereo not drawn) | 1.43
* COc1ccc(CCNC(=O)CSc2nnnn2-c2ccccc2OC)cc1OC | -2.14
* CN1CCc2c(sc3c2C(=O)NC(c2ccc(-c4cccc(Cl)c4)o2)N3)C1 (stereo not drawn) | -1.49
* COc1ccc(C2C(C(=O)N3CCC(C)CC3)c3ccccc3C(=O)N2C)cc1 (stereo not drawn) | -2.5
* COc1ccc(Nc2ncnc3c2cnn3-c2ccccc2)cc1OC | -0.97
* COc1ccc(N2Cc3cccc(C(=O)O)c3C2=O)cc1 | -0.59
* CCCOc1ccc(N2C(=O)CC(N3CCC(O)(c4cccc(C(F)(F)F)c4)CC3)C2=O)cc1 (stereo not drawn) | 2.49
* CC1(C)CC(=O)C2(CC3=C(CC(C)(C)CC3=O)O2)C(=O)C1 | 0.2

Q) What viability increase value was documented for this molecule, O=C(c1ccco1)N1CCN(C2=NS(=O)(=O)c3ccccc32)CC1 ?
A) -2.12

Q) So what does the record say about viability increase for CCCc1cc(=O)oc2cc(C)cc(OC(=O)c3ccco3)c12 ?
A) -1.16

Q) # query: viability increase of entry CCSC1=C(C#N)C(c2ccccc2OC)CC(=O)N1 (stereo not drawn)
A) 0.28

Q) Looking for the measured viability increase of Cc1ccc(S(=O)(=O)N2CCCC2C(=O)Nc2nccs2)cc1 (stereo not drawn) , can you help?
A) -1.37

Q) Which viability increase is reported for this molecule? O=C(c1cccs1)N1CCc2ccccc21
A) -1.9

Q) Field request: viability increase | item: COCCNC(=O)c1cc2c(=O)n3cccc(C)c3nc2n1C
A) -5.8

Data origin: PubChem BioAssay
